# Experiment: in vitro
# Condition info: human, hep2 cells
Each entry below lists one item and its recorded CC50 value.

In the examples that follow, each entry is paired with its recorded CC50.
# Compound, Readout kind, Experimental result
measured = [
    ("C[C@]1(O)[C@H](n2ccc3c(N)ncnc32)O[C@](F)(CO)[C@H]1O [Example 10]", "CC50", "> 99 µM"),
    ("O=c1[nH]cnc2c1c(F)cn2[C@@H]1O[C@](F)(CO)[C@@H](O)[C@H]1O [Example 21]", "CC50", "> 99 µM"),
    ("COc1ncnc2c1c(C(N)=O)cn2[C@@H]1O[C@](F)(CO)[C@@H](O)[C@H]1O [Example 38]", "CC50", "10 to 99 µM"),
]

IN: Name the reported CC50 value associated with the compound Nc1ncnc2c1ccn2[C@@H]1O[C@](F)(CO)[C@@H](O)[C@H]1O [Example 1]
OUT: 1 to 10 µM

IN: Name the reported CC50 value associated with the compound Nc1ncnc2c1ccn2[C@@H]1O[C@@](CO)(CF)[C@@H](O)[C@H]1O [Example 20]
OUT: 10 to 99 µM

IN: Name the reported CC50 value associated with the compound OC[C@]1(F)O[C@@H](n2ccc3c(Cl)ncnc32)[C@H](O)[C@@H]1O [Example 5]
OUT: > 99 µM

IN: Name the reported CC50 value associated with the compound CNc1nc(N)nc2c1ncn2[C@@H]1O[C@](F)(COP(=O)(N[C@@H](C)C(=O)OC(C)C)Oc2ccccc2)[C@@H](O)[C@]1(F)Cl (single isomer, unassigned) [Example 59]
OUT: > 99 µM

src = patent US20260325561A1
